Can you tell me experimental hit status, Factor Xa for the items I'm about to list?
Biological target: bovine factor Xa (Bos taurus, UniProt P00743)
Construct: bovine factor Xa, Chromogenix, 2 nkat/mL; purchased Chromogenix
Sequence (P00743 234-492 limits assumed): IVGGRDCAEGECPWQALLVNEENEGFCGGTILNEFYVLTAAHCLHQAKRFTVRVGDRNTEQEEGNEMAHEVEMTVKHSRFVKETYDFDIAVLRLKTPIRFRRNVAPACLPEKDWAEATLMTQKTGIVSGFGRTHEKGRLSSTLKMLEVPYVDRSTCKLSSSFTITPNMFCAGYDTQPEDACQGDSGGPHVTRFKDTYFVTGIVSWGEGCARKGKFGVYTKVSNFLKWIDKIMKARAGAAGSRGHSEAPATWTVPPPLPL
Sequence (P00743 41-180 partner limits assumed): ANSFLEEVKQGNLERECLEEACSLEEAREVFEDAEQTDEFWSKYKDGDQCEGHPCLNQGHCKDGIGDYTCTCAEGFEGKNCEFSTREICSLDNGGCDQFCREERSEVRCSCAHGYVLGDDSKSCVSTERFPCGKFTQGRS
Experiment: Protease inhibitory assay, chromogenic substrate S-2222
Format: biochemical
Conditions: 1 = hit, 0 = no hit; screening at 200 µM

The compound listed as `c1ccc2[nH]ccc2c1` shows experimental hit status, Factor Xa equal to 0

Data point: `c1cnc2ncccc2c1` ; experimental hit status, Factor Xa = 0

The reported value for `Cc1cc2ccccc2nc1N` in terms of experimental hit status, Factor Xa is 1

Input `Nc1nnc2ccccn12` . Output experimental hit status, Factor Xa: 0

// `c1cnc2cccnc2c1` : experimental hit status, Factor Xa value = 0
